Ref: patent US20160272683A1

- assayed.system: T1, human amylin receptor (amylin 3(a) receptor: human calcitonin receptor with RAMP-3) (human, UniProt P30988 25-474; O60896 24-148, limits assumed)
- T1 construct: whole, on cells; Assay V: membranes of the Amylin 3(a)/CRE-luc BHK cells on SPA beads; also called hAmylin-R
- T1 sequence (looked up) 1: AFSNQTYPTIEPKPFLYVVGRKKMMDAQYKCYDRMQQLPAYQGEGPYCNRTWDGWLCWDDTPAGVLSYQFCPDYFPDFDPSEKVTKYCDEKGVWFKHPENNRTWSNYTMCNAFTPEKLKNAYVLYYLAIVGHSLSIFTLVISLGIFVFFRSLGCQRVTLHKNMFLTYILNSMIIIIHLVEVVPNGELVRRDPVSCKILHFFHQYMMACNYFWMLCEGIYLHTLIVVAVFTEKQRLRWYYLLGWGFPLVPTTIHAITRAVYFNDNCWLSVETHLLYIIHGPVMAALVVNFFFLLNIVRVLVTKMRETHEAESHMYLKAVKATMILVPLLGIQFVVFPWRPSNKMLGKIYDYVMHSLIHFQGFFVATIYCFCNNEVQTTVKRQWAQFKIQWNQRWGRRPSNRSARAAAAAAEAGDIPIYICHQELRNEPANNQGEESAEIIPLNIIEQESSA
- T1 sequence (looked up) 2: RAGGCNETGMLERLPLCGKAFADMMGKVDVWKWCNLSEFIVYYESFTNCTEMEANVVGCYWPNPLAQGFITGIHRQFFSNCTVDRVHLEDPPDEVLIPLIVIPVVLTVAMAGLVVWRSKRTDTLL
- procedure.summary: SPA competition vs 125I-rat amylin, membranes with human CTR + RAMP-3 (Assay V)
Numbered stars: 1 amine (or outer) side, 2 acyl side, 3 side chain; on linkers, the order of the positions; unused ones are H or OH. Side chains are listed from the residue outwards. * marks the point of attachment. C20 diacid = O=C(O)CCCCCCCCCCCCCCCCCCC(=O)*; C18 diacid = O=C(O)CCCCCCCCCCCCCCCCC(=O)*; C16 diacid = O=C(O)CCCCCCCCCCCCCCC(=O)*; γGlu = O=C(O)[C@H](CCC(=O)[*:2])N[*:1]; C14 diacid = O=C(O)CCCCCCCCCCCCC(=O)*; AEEA = NCCOCCOCC(=O)O
value.kind: pIC50
The scale used: pIC50 is minus the common logarithm of the concentration in molar units.

Record request: pIC50 value, item {C14 diacid-γGlu}-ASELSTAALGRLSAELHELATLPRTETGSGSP-NH2 (mimylin derivative; des1 = residue 1 deleted; also called Ex. #50; 50) [[N-terminal(C14 diacid-gGlu), des1, 30S, 31G]mimylin]
10.27

Check Ac-ASELSTAALGRLSAELHK([γGlu-C20 diacid])LATLPRTETGSGSP-NH2 (mimylin derivative; des1 = residue 1 deleted; also called Ex. #70; 70) [[N-terminal(acetyl), des1, 19K(C20 diacid-gGlu), 30S, 31G]mimylin] too.
9.69

Also check {C18 diacid-γGlu}-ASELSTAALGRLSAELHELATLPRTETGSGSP-NH2 (mimylin derivative; des1 = residue 1 deleted; also called Ex. #46; 46) [[N-terminal(C18 diacid-gGlu), des1, 30S, 31G]mimylin]
9.29

Try {C14 diacid}-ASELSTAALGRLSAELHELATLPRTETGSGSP-NH2 (mimylin derivative; des1 = residue 1 deleted; also called Ex. #51; 51) [[N-terminal(C14 diacid), des1, 30S, 31G]mimylin] next.
9.11

Same again, this time with Ac-ASK([γGlu-C20 diacid])LSTAALGRLSAELHELATLPRTETGSGSP-NH2 (mimylin derivative; des1 = residue 1 deleted; also called Ex. #68; 68) [[N-terminal(acetyl), des1, 4K(C20 diacid-gGlu), 30S, 31G]mimylin]
10.30

{C16 diacid-γGlu}-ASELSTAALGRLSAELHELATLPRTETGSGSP-NH2 (mimylin derivative; des1 = residue 1 deleted; also called Ex. #47; 47) [[N-terminal(C16 diacid-gGlu), des1, 30S, 31G]mimylin] , same question.
10.43

Note, next up: {C20 diacid-γGlu-AEEA-AEEA-AEEA}-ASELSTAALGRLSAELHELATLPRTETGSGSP-NH2 (mimylin derivative; des1 = residue 1 deleted; also called Ex. #43; 43) [[N-terminal(C20 diacid-gGlu-3xOEG), des1, 30S, 31G]mimylin]
9.79

Now consider {C20 diacid-γGlu}-ASELSTAALGHLSAELHELATLPRTETGSGSP-NH2 (mimylin derivative; also called Ex. #72; 72) [[N-terminal(C20 diacid-gGlu), des1, 12H, 30S, 31G]mimylin] .
9.25

Now consider {C20 diacid-γGlu-AEEA-AEEA-AEEA-AEEA-AEEA}-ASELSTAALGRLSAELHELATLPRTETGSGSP-NH2 (mimylin derivative; des1 = residue 1 deleted; also called Ex. #45; 45) [[N-terminal(C20 diacid-gGlu-5xOEG), des1, 30S, 31G]mimylin] .
9.41

Next up: Ac-ASELSTAALGRLSAK([γGlu-C20 diacid])LHELATLPRTETGSGSP-NH2 (mimylin derivative; des1 = residue 1 deleted; also called Ex. #69; 69) [[N-terminal(acetyl), des1, 16K(C20 diacid-gGlu), 30S, 31G]mimylin]
10.13

What do you have for {C18 diacid}-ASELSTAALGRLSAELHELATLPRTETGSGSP-NH2 (mimylin derivative; des1 = residue 1 deleted; also called Ex. #48; 48) [[N-terminal(C18 diacid), des1, 30S, 31G]mimylin] ?
10.11
